Source listed as patent US10221163B2.

Give measured Efflux ratio for each item. Keep answers brief.
Tested on: Pseudomonas aeruginosa MB9798 vs MB9799
TEST PARAMETERS: ratio MITC95 PA_9798/MITC95 PA_9799
Numbers only.

Solved entries:
COMPOUND	Efflux ratio
Nc1nc2c(-c3ccc(S(=O)(=O)N4CCC(CO)CC4)c(S(N)(=O)=O)c3-c3nnn[nH]3)cccc2s1	16.00
N[C@@H]1CNC[C@@H]1NS(=O)(=O)c1ccc(-c2cnc3cc[nH]c3c2)c(-c2nn[nH]n2)c1S(N)(=O)=O	1.00
Nc1nc2c(-c3ccc(S(=O)(=O)N[C@@H]4CCNC4)c(S(N)(=O)=O)c3-c3nnn[nH]3)cccc2s1	0.50
Nc1nc2c(-c3ccc(S(=O)(=O)N4CC[C@H](N)C4)c(S(N)(=O)=O)c3-c3nnn[nH]3)cccc2s1	1.00
CN(C)S(=O)(=O)c1ccc(-c2cccc3sc(N)nc23)c(-c2nn[nH]n2)c1S(N)(=O)=O	16.00
Cn1c(N)nc2c(-c3ccc(S(=O)(=O)N[C@H]4CC[N+](C)(C)C4)c(S(N)(=O)=O)c3-c3nn[n-]n3)cccc21	2.00

Prompt line: I am curious: what Efflux ratio value has been reported for "Nc1ccc(-c2ccc(S(=O)(=O)N[C@@H]3CCNC3)c(S(N)(=O)=O)c2-c2nn[nH]n2)cn1" ?
Response line: 0.80

---

Give measured pIC50 for each item. Keep answers brief.
TARGET OF ASSAY: IMP-1 (Serratia marcescens, UniProt P52699)
Sequence (P52699 whole entry, looked up, species assumed): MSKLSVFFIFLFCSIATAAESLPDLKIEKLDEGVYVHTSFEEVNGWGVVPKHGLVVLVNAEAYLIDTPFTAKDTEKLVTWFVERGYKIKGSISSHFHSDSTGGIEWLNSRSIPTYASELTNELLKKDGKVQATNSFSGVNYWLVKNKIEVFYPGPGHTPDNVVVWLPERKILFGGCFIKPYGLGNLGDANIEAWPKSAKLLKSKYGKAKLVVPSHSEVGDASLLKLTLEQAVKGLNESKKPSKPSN
ASSAY PROCEDURE: biochemical
Assay type: biochemical
TEST PARAMETERS: fluorescence assay, CCF2-FA substrate, 2 pM enzyme, 2 hours at 25° C.; read-out: IMP-1 IC50
One number for each entry, as −log10 of the molar value.

Solved entries:
COMPOUND	pIC50
NC[C@@H](O)CNS(=O)(=O)c1ccc(-c2cccc3[nH]cnc23)c(-c2nn[nH]n2)c1S(N)(=O)=O	9.89
NC[C@H](CO)NS(=O)(=O)c1ccc(-c2cccc3[nH]nnc23)c(-c2nn[nH]n2)c1S(N)(=O)=O	8.87
Nc1nc2c(-c3ccc(S(=O)(=O)NC4CNC4)c(S(N)(=O)=O)c3-c3nn[nH]n3)cccc2[nH]1	9.18
Cc1cc(-c2ccc(S(=O)(=O)NC[C@@H](O)CN)c(S(N)(=O)=O)c2-c2nn[nH]n2)cnc1N	9.25

For each of the compounds below, note its pIC50.
1. CC(CN1CCOCC1)NS(=O)(=O)c1ccc(-c2cccc3sc(N)nc23)c(-c2nnn[nH]2)c1S(N)(=O)=O (stereo not shown)
2. C[C@H](N)Cc1nc2c(-c3ccc(S(N)(=O)=O)c(S(N)(=O)=O)c3-c3nn[nH]n3)cccc2[nH]1
3. NCCNS(=O)(=O)c1ccc(-c2ccnc(CN)c2)c(-c2nn[nH]n2)c1S(N)(=O)=O

Response line:
1: 9.41; 2: 8.88; 3: 7.30

---

TARGET OF ASSAY: IMP-1 (Serratia marcescens, UniProt P52699)
ASSAY PROCEDURE: biochemical
Format: biochemical
TEST PARAMETERS: fluorescence assay, CCF2-FA substrate, 2 pM enzyme, 2 hours at 25° C.; read-out: IMP-1 IC50
MEASUREMENT LABEL: pIC50
Give bare numbers, as −log10 of the molar value.

Solved entries:
COMPOUND	pIC50
NCCNS(=O)(=O)c1ccc(-c2cccc3c2CCCN3)c(-c2nn[nH]n2)c1S(N)(=O)=O [Example 455]	9.28
NCCNS(=O)(=O)c1ccc(-c2cccc(-c3c[nH]c(N)n3)c2)c(-c2nn[nH]n2)c1S(N)(=O)=O [Example 353]	8.94
NCCCNS(=O)(=O)c1ccc(-c2cccc3[nH]c(N)nc23)c(-c2nn[nH]n2)c1S(N)(=O)=O [Example 182]	9.34

Let us move to another entry and its pIC50.
Prompt line: Lab note: need pIC50 for Nc1ccc2cccc(-c3ccc(S(=O)(=O)N[C@@H]4CNC[C@@H]4N)c(S(N)(=O)=O)c3-c3nn[nH]n3)c2n1 [Example 319] on IMP-1 (Serratia marcescens, UniProt P52699), anyone have it?
Response line: 9.58
